- target_desc: GlmU (Mycobacterium tuberculosis)
- experimental_details: biochemical
- Parameters: Inhibition constants from double reciprocal plots, DTNB acetyltransferase assay with varied substrate
readout_kind: Ki (µM)

[
  {
    "compound": "O=c1oc2ccccc2c2c1Sc1ccccc1N2 [BCTZ]",
    "assay_value": 81.6
  }
]

* * *

Parameter: log10(IC50). Scope: all listed entries.
- target_desc: GlmU (Mycobacterium tuberculosis, UniProt P9WMN3)
- Sequence (P9WMN3 2-495): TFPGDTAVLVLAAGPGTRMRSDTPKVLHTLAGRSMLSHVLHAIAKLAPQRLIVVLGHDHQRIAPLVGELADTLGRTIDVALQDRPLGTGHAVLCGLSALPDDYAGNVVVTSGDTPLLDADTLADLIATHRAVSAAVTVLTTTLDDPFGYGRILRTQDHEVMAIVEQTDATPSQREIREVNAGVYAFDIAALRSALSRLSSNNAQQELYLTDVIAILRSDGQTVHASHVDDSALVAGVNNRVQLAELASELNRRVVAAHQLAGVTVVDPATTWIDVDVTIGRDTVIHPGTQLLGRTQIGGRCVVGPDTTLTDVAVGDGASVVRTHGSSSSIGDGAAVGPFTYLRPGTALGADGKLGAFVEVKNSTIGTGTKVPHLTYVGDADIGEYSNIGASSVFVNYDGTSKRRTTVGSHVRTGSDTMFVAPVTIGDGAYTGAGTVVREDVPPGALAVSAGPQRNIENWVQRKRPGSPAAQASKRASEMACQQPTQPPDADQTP
- experimental_details: biochemical
- Set-up: DTNB colorimetric assay of GlmU acetyltransferase activity, absorbance at 405 nm
readout_kind: log10(IC50) (log10 of the value in µM)

[
  {
    "smiles_repr": "O=c1oc2ccccc2c2c1Sc1ccccc1N2",
    "readout_kind": "log10(IC50)",
    "assay_value": 1.79
  },
  {
    "smiles_repr": "O=C1CC(=O)c2c1cccc2[N+](=O)[O-]",
    "readout_kind": "log10(IC50)",
    "assay_value": 2.09
  },
  {
    "smiles_repr": "O=C1C=CC(=O)N1c1cccc(N2C(=O)C=CC2=O)c1",
    "readout_kind": "log10(IC50)",
    "assay_value": 1.01
  },
  {
    "smiles_repr": "O=C1NC(=S)SC1=Cc1ccc(OCc2ccc([N+](=O)[O-])cc2)cc1",
    "readout_kind": "log10(IC50)",
    "assay_value": 1.81
  },
  {
    "smiles_repr": "Cc1ccc(C)n1-c1ccsc1C(=O)O",
    "readout_kind": "log10(IC50)",
    "assay_value": 2.20
  }
]

# credit: paper PMC6652808
